tested on: VCaP; assay: Antiproliferative activity against AR-positive human VCaP cells assessed as cell viability at 40 uM measured after 72 hrs by resazurin dye based fluorescence assay relative to control; type: functional; settings: read-out: Activity
readoutLabel: viability at 40 µM (%)
Please respond with the number in % and leave the unit unwritten.

[
  {
    "compound": "COC(=O)c1nn2c(c1C(=O)OC)C[C@]1(C(C)=O)[C@@H](C[C@H]3[C@@H]4CCC5=CC(=O)CC[C@]5(C)[C@H]4CC[C@@]31C)[C@H]2Cc1ccccc1",
    "viability at 40 µM / %": 80.7
  }
]

Reported viability at 40 µM, compound COC(=O)c1nn2c(c1C(=O)OC)C[C@]1(C(C)=O)[C@@H](C[C@H]3[C@@H]4CC=C5C[C@@H](OC(C)=O)CC[C@]5(C)[C@H]4CC[C@@]31C)[C@H]2Cc1ccccc1 : ____ 85.9

If you can, please state the reported viability at 40 µM value of COC(=O)c1cnn2c1C[C@]1(C(C)=O)[C@@H](C[C@H]3[C@@H]4CCC5=CC(=O)CC[C@]5(C)[C@H]4CC[C@@]31C)C2 . 85.1

Would you mind telling me what viability at 40 µM value was observed for CNC(=O)c1ccc(N2C(=S)N(c3ccc(C#N)c(C(F)(F)F)c3)C(=O)C2(C)C)cc1F [ENZALUTAMIDE] ? 61.2

Give its viability at 40 µM value. Item: COC(=O)c1nn2c(c1C(=O)OC)C[C@]1(C(C)=O)[C@@H](C[C@H]3[C@@H]4CCC5=CC(=O)CC[C@]5(C)[C@H]4CC[C@@]31C)C2 80.3
